Biological target: D(3) dopamine receptor (Homo sapiens, UniProt P35462)
Sequence (P35462 whole entry): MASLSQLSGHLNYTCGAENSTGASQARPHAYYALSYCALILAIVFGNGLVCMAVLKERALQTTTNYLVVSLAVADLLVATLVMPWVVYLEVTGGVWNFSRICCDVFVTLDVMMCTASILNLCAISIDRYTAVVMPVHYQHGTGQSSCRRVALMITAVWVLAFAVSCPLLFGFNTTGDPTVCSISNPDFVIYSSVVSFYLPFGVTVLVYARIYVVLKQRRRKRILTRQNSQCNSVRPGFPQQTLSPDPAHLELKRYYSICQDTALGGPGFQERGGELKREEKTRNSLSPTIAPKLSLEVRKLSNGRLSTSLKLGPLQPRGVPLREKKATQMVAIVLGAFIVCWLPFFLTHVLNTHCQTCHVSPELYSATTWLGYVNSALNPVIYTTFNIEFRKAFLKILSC
Experiment: Agonist activity at human dopamine D3 receptor expressed in HEK293 cells by mitogenesis assay
Type: functional, cell-based
Design: concentration or dose not given beside the values
Lab note: compare Activity with 40%, writing Condition met if less and Condition not met if equal or more.

Would you please look over these solved cases?
Compound	Class
O=C(NC/C=C/CN1CCN(c2cccc(Cl)c2Cl)CC1)c1ccc2c(c1)Cc1ccccc1-2	Condition not met
O=C(NCC(O)CCN1CCN(c2cccc(Cl)c2Cl)CC1)c1ccc(-c2ccccn2)cc1 (stereo unspecified)	Condition met

Input: For this compound, is Activity lower than 40%? "O=C(NCCCCN1CCN(c2cccc(Cl)c2Cl)CC1)c1ccc(-c2ccccn2)cc1"
Output: Condition met

Input: Given CC(=O)OC(CCNC(=O)c1ccc(-c2ccccn2)cc1)CN1CCN(c2cccc(Cl)c2Cl)CC1 (stereo unspecified) , is recorded Activity strictly lower than 40%?
Output: Condition not met

Input: In the record for O=C(NCCC(O)CN1CCN(c2cccc(Cl)c2Cl)CC1)c1ccc(-c2ccccn2)cc1 (stereo unspecified) , is Activity less than 40%?
Output: Condition not met

Input: State whether 40% exceeds Activity recorded for O=C(NCCC(O)CN1CCN(c2cccc(Cl)c2Cl)CC1)c1ccc2c(c1)Cc1ccccc1-2 (stereo unspecified) .
Output: Condition met

---

Entries and their pKi
Target: 5-hydroxytryptamine receptor 1A (Homo sapiens)
Sequence (P08908 whole entry): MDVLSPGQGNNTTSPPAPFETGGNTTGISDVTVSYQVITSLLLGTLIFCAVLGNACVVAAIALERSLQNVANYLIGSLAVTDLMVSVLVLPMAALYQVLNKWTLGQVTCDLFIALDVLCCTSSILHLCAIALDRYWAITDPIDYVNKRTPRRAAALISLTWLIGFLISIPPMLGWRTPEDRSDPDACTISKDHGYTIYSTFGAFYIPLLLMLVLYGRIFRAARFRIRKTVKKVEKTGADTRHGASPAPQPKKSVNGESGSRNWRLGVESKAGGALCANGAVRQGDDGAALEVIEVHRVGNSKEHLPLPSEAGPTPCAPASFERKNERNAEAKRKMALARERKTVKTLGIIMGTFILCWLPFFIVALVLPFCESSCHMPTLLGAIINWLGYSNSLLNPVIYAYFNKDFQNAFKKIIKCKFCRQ
Formally, pKi is defined as -log10 of the concentration c, with c in mol/L.

Examples with answers:
Compound	pKi
O=C(NC/C=C/CN1CCN(c2cccc(Cl)c2Cl)CC1)c1ccc2c(c1)Cc1ccccc1-2	6.03
COc1ccccc1N1CCN(C/C=C/CNC(=O)c2ccc(-c3ccccn3)cc2)CC1	7.66
O=C(NCCC(O)CN1CCN(c2cccc(Cl)c2Cl)CC1)c1ccc(-c2ccccn2)cc1 (stereo not drawn)	7.46
Cc1cccc(-c2ccc(C(=O)NC/C=C/CN3CCN(c4cccc(Cl)c4Cl)CC3)cc2)n1	6.51
COc1ccccc1N1CCN(CC(O)CCNC(=O)c2ccc(-c3ccccn3)cc2)CC1 (stereo not drawn)	7.44
O=C(NCCCCN1CCN(c2cccc(Cl)c2Cl)CC1)c1ccc2c(c1)Cc1ccccc1-2	5.69

// sample "COc1ccccc1N1CCN(CCCCNC(=O)c2ccc3c(c2)Cc2ccccc2-3)CC1" , its pKi was 7.47

pKi for "O=C(NC/C=C/CN1CCN(c2cccc(Cl)c2Cl)CC1)c1ccc(-c2cccc[n+]2[O-])cc1" is 7.22

Provenance of the data: ChEMBL document CHEMBL1148745
